tested on: ABL1(M351T)-phosphorylated; settings: Compound Concentration (nM):1000;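 note: KINOMEscan scanMAX binding as percent activity remaining versus control; lower means stronger binding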
Hi, to clarify the labels: satisfied covers Percent Control from 80% upward, not satisfied covers anything below 80%.

Query block: Does the molecule COc1ccc(COc2ccc(Cc3cnc(N)nc3N)cc2OC)cc1 [GW632580X] have recorded Percent Control that is 80% or more?
Result block: satisfied

Query block: Has CCc1ccc(Oc2nccc(-c3c(-c4ccc(F)cc4)ncn3C3CCNCC3)n2)cc1 a recorded Percent Control greater than or equal to 80%?
Result block: satisfied

Query block: Is reported Percent Control greater than or equal to 80% here: Cl.O=C(Nc1ccc(Oc2ccc3[nH]c(NC(=O)c4ccccc4)nc3c2)cc1)Nc1cc(C(F)(F)F)ccc1F [GW709042A]
Result block: not satisfied

Query block: Is Percent Control for CN(C)c1cc2c(Nc3ccc4c(cnn4Cc4ccccc4)c3)ncnc2cn1 [GW282974X] at or above 80%?
Result block: satisfied

Query block: Is reported Percent Control greater than or equal to 80% here: COc1cc(/C=N/Nc2ncnc3[nH]ncc23)ccc1O [GW578748X]
Result block: not satisfied

====

system: STK36; conditions: Compound Concentration (nM):1000
attribute.measured: Percent Control (%)
Write the answer as a number in %, unit excluded.

Query block: Quickly give me recorded Percent Control for CCS(=O)(=O)c1ccc(OC)c(Nc2ncc(-c3cccc(F)c3)o2)c1 [GW621970X]
Result block: 100

Query block: Indicate its recorded Percent Control; the compound in question is COc1cc2ncn(-c3cc(O[C@H](C)c4ccccc4Cl)c(C(N)=O)s3)c2cc1OC [GSK237701A]
Result block: 98

Query block: // fetch Percent Control given entry COc1cc(N2CCN(C(C)C)CC2)ccc1Nc1nc(Nc2ccc(F)cc2C(=O)NC[C@@H](O)CO)c2cc[nH]c2n1 [GSK1392956A]
Result block: 100

Query block: Give recorded Percent Control. CCS(=O)(=O)c1ccc(OC)c(Nc2ncc(-c3cccc(OC)c3)o2)c1 [GW580509X]
Result block: 100

Query block: Give the measured Percent Control for CN(C)c1cc2c(Nc3ccc4c(cnn4Cc4ccccc4)c3)ncnc2cn1 [GW282974X]
Result block: 100

Query block: Please look at this compound and report its Percent Control: COc1cc(/C=N/Nc2ncnc3[nH]ncc23)ccc1O [GW578748X]
Result block: 57

Query block: Please indicate Percent Control recorded for COc1ccccc1-c1cc(/C=C2\C(=O)Nc3ncc(Br)cc32)cc(Br)c1O [GW442130X]
Result block: 100

Query block: Tell me measured Percent Control for COc1ccc2[nH]c3c4[nH]c5ccc(OC)cc5c4c4c(c3c2c1)C(=O)NC4=O [GW296115X] please.
Result block: 70

====

Could you please report measured Percent Control for the items listed next?
system: RPS6KA5(Kin.Dom.1-N-terminal); conditions: Compound Concentration (nM):1000
Only the number, expressed in %, is required.

Query block: Provide measured Percent Control value, entry: CCn1c(-c2nonc2N)nc2c(C#CC(C)(C)O)nc(OCCNC)cc21.Cl
Result block: 91

Query block: Item NS(=O)(=O)c1ccc(N/N=C2\C(=O)Nc3ccc(C(=O)NCc4ccncc4)cc32)cc1 [GW300657X] : provide Percent Control
Result block: 100

Query block: For the compound Cl.O=S1CCN(Cc2ccc(-c3ccc4ncnc(Nc5ccc(OCc6ccccc6)c(F)c5)c4c3)o2)CC1 [GW576924A] , give its reported Percent Control.
Result block: 100

Query block: Determine its reported Percent Control: NS(=O)(=O)c1ccc(Nc2ncc(-c3ccccc3)o2)cc1 [GW572399X]
Result block: 100

====

Please respond with reported Percent Control for every item in the list.
test system: PDPK1; conditions: Compound Concentration (nM):1000
Note: unit % is implicit; provide only the numeric part.

Query block: Quick one: give measured Percent Control for NS(=O)(=O)c1ccc(N/N=C2\C(=O)Nc3ccc(-c4cnco4)cc32)cc1
Result block: 82

Query block: Give a short answer stating reported Percent Control for COc1ccc2[nH]c3c4[nH]c5ccc(OC)cc5c4c4c(c3c2c1)C(=O)NC4=O [GW296115X] .
Result block: 25

Query block: Respond only with Percent Control recorded for CN1CCN(C(=O)c2ccc(NC(=O)Nc3ccc(N(C)c4ccnc(Nc5ccc(CS(C)(=O)=O)cc5)n4)cc3)cc2)CC1.Cl [GW830263A]
Result block: 68

Query block: Respond only with Percent Control recorded for CCn1c(-c2nonc2N)nc2c(C#CC(C)(C)O)nc(OCCNC)cc21.Cl
Result block: 79

====

Please go through the items and note down their Percent Control.
system: ABL1(F317L)-nonphosphorylated; conditions: Compound Concentration (nM):1000
Lab book: enter the figure in %, no units written.

Query block: Return Percent Control (reported value) for this compound: COc1cc(N2CCN(C(C)C)CC2)ccc1Nc1nc(Nc2ccc(F)cc2C(=O)NC[C@@H](O)CO)c2cc[nH]c2n1 [GSK1392956A]
Result block: 95

Query block: Specify Percent Control for NS(=O)(=O)c1ccc(N/N=C2\C(=O)Nc3ccc(-c4cnco4)cc32)cc1 and stop.
Result block: 75

Query block: Consider the compound COc1ccc(COc2ccc(Cc3cnc(N)nc3N)cc2OC)cc1 [GW632580X] and give its recorded Percent Control.
Result block: 100

Query block: Tell me Percent Control reported for COc1cc2ncnc(Nc3ccc4c(cnn4Cc4ccccc4)c3)c2cc1OC.Cl [GW282449A]
Result block: 93

Query block: Complete the entry with Percent Control for COc1cc(C=NNc2ncnc3c2cnn3-c2ccccc2)ccc1O [GW513184X]
Result block: 100

Query block: Check the records and state Percent Control for Cl.O=S1CCN(Cc2ccc(-c3ccc4ncnc(Nc5ccc(OCc6ccccc6)c(F)c5)c4c3)o2)CC1 [GW576924A]
Result block: 100

Query block: Fill in Percent Control for record CC1=C(C(=O)Nc2ccc3[nH]ncc3c2)C(c2ccc(Cl)c(Cl)c2)CC(=O)N1 (stereo not shown) [GSK299115A]
Result block: 75

Query block: // fetch Percent Control given entry Cl.O=C(Nc1ccc(Oc2ccc3[nH]c(NC(=O)c4ccco4)nc3c2)cc1)Nc1cc(C(F)(F)F)ccc1F [GW683134A]
Result block: 6.8

Query block: State its Percent Control: O=C(Nc1n[nH]c2nc(-c3ccc(O)cc3)c(Br)cc12)C1CC1
Result block: 100

Query block: For the compound Nc1ncnc2occ(-c3ccc(NC(=O)Nc4cc(C(F)(F)F)ccc4F)cc3)c12 [GW770249X] , give its measured Percent Control value.
Result block: 7.8

Query block: Give a short answer stating reported Percent Control for CN(C)c1cc2c(Nc3ccc4c(cnn4Cc4ccccc4)c3)ncnc2cn1 [GW282974X] .
Result block: 99

Query block: Quick one: give measured Percent Control for COc1ccc2c(-c3ccnc(Nc4cccc(OC(F)(F)F)c4)n3)cnn2n1 [GW810372X]
Result block: 100

Query block: Return reported Percent Control. Input compound: COc1ccc2cc(-c3c(-c4ccncc4)nc(-c4ccc(S(C)(=O)=O)cc4C)n3C)ccc2c1
Result block: 83

Query block: Answer with reported Percent Control of COC(=O)Nc1nc2ccc(Oc3ccc(NC(=O)Nc4cc(C(F)(F)F)ccc4F)cc3)cc2s1.Cl [GW693917A]
Result block: 3.6

Query block: Write down Percent Control measured for item C/C(Nc1ccc(S(N)(=O)=O)cc1)=C1/C(=O)Nc2ccccc21 [GW335962X]
Result block: 100

Query block: Let me know recorded Percent Control for NS(=O)(=O)c1ccc(N/N=C2\C(=O)Nc3ccc(C(=O)NCc4ccncc4)cc32)cc1 [GW300657X] , thanks.
Result block: 92

====

system: MEK2; construct: gene MAP2K2; conditions: Compound Concentration (nM):1000
attribute.measured: Percent Control (%)
Record the value in %, omitting the unit from your answer.

Query block: Specify reported Percent Control for the molecule shown: Nc1ncnc2occ(-c3ccc(NC(=O)Nc4cc(C(F)(F)F)ccc4F)cc3)c12 [GW770249X]
Result block: 100

Query block: Input C[C@@H](Oc1cc(-n2cnc3ccc(OC4CCN(C)CC4)cc32)sc1C(N)=O)c1ccccc1Cl [GSK579289A] , output reported Percent Control.
Result block: 96

Query block: # return recorded Percent Control for entry COc1ccc(COc2ccc(Cc3cnc(N)nc3N)cc2OC)cc1 [GW632580X]
Result block: 90

Query block: Look up and state reported Percent Control for CN(C)c1cc2c(Nc3ccc4c(cnn4Cc4ccccc4)c3)ncnc2cn1 [GW282974X]
Result block: 50

Query block: Given Cl.O=S1CCN(Cc2ccc(-c3ccc4ncnc(Nc5ccc(OCc6ccccc6)c(F)c5)c4c3)o2)CC1 [GW576924A] , respond with its Percent Control.
Result block: 93

Query block: Look up Percent Control of NS(=O)(=O)c1ccc(N/N=C2\C(=O)Nc3ccc(C(=O)NCc4ccncc4)cc32)cc1 [GW300657X] and report it.
Result block: 100

Query block: Consider the molecule Cc1cc(O)cc(C)c1/C=C/c1cncc(C(N)=O)c1 [GW435821X] . State its measured Percent Control.
Result block: 89

Query block: Entry C/C(Nc1ccc(S(N)(=O)=O)cc1)=C1/C(=O)Nc2ccccc21 [GW335962X] needs its Percent Control filled in; supply it.
Result block: 81

Query block: Provide Percent Control value for the following molecule: COc1ccc2c(-c3ccnc(Nc4cccc(OC(F)(F)F)c4)n3)cnn2n1 [GW810372X]
Result block: 100
